test system: Calu-3; experiment: cell viability relative to DMSO; higher = less toxic; conditions: 72 h; 100 nM

- compound: "CC(C)Oc1cccc(-n2c(CCc3c[nH]c4ccc(Br)cc34)nc3ccccc3c2=O)c1"
  system name: "Calu-3"
  cell viability, %: 92.9
- compound: "Nc1nccc2c1ncn2C1C=C(CO)C(O)C1O (stereo not drawn)"
  system name: "Calu-3"
  cell viability, %: 108
- compound: "Cc1nc(C)c(C)nc1C"
  system name: "Calu-3"
  cell viability, %: 89.9
- compound: "CCC(CC)(CC(=O)Nc1cccc(/C=C/c2nc(C3CCC3)cs2)c1)C(=O)O"
  system name: "Calu-3"
  cell viability, %: 88.1
- compound: "CC(=O)OCC(=O)[C@@]12N=C(C)O[C@@H]1C[C@H]1[C@@H]3CCC4=CC(=O)C=C[C@]4(C)[C@H]3[C@@H](O)C[C@@]12C"
  system name: "Calu-3"
  cell viability, %: 97.2
- compound: "C/C=C/c1cc(OC)c(OC)cc1OC"
  system name: "Calu-3"
  cell viability, %: 102
- compound: "COc1ccc2c(C(=S)N(C)CC(=O)O)cccc2c1C(F)(F)F"
  system name: "Calu-3"
  cell viability, %: 94.5
- compound: "CCN(CC)C(=S)SSC(=S)N(CC)CC"
  system name: "Calu-3"
  cell viability, %: 94.7
- compound: "CCCCOc1ccc(C(=O)CCN2CCCCC2)cc1"
  system name: "Calu-3"
  cell viability, %: 99.2
- compound: "C[C@H](NC(=O)[C@@H](Cc1c[nH]c2ccccc12)NC(=O)[C@@H](N)Cc1c[nH]cn1)C(=O)N[C@@H](Cc1c[nH]c2ccccc12)C(=O)N[C@H](Cc1ccccc1)C(=O)N[C@@H](CCCCN)C(N)=O"
  system name: "Calu-3"
  cell viability, %: 107
- compound: "CC(C)NC(=O)COc1cccc(-c2nc(Nc3ccc4[nH]ncc4c3)c3ccccc3n2)c1"
  system name: "Calu-3"
  cell viability, %: 89.4
- compound: "CC(C)c1ccc(NC(=O)Cn2cnc3c2c(=O)n(C)c(=O)n3C)cc1"
  system name: "Calu-3"
  cell viability, %: 92.9
- compound: "O=S(=O)(O)c1cc(O)ccc1O [etamsylate]"
  system name: "Calu-3"
  cell viability, %: 106
- compound: "COc1cc2c(Oc3ccc(NC(=O)C4(C(=O)Nc5ccc(F)cc5)CC4)cc3F)ccnc2cc1OCCCN1CCOCC1"
  system name: "Calu-3"
  cell viability, %: 96.9
- compound: "COC(=O)c1cc(OC)c2c(c1-c1c(C(=O)OC)cc(OC)c3c1OCO3)OCO2 [bifendate]"
  system name: "Calu-3"
  cell viability, %: 101
- compound: "CN1CCC(COc2cnc(-c3cccc(Cn4nc(-c5cccc(C#N)c5)ccc4=O)c3)nc2)CC1"
  system name: "Calu-3"
  cell viability, %: 93.3
- compound: "COC(=O)/C=C/C(=O)OCCN1C(=O)CCC1=O [diroximel-fumarate]"
  system name: "Calu-3"
  cell viability, %: 120
- compound: "CCOC(=O)CNC(=O)[C@@H]1CCCN1C(=O)Cc1ccccc1"
  system name: "Calu-3"
  cell viability, %: 106

* * *

tested on: U2OS; test: cell viability relative to DMSO; higher = less toxic; details: 72 h; 10 nM
Here, each record is paired with measured cell viability data.

- input smiles: "CC[C@H](C)[C@@H]([C@@H](CC(=O)N1CCC[C@H]1[C@H](OC)[C@@H](C)C(=O)N[C@@H](Cc1ccccc1)c1nccs1)OC)N(C)C(=O)[C@@H](NC(=O)[C@H](C(C)C)N(C)C)C(C)C"
  system name: "U2OS"
  cell viability, %: 22.7
- input smiles: "COc1cc2ncnc(Nc3cccc(Cl)c3F)c2cc1OC(=O)N1CCN(C)C[C@H]1C"
  system name: "U2OS"
  cell viability, %: 101
- input smiles: "O=C(O)CCC(=O)Nc1ccc(S(=O)(=O)Nc2nccs2)cc1"
  system name: "U2OS"
  cell viability, %: 100
- input smiles: "CN1CCc2c(c3ccccc3n2Cc2ccc(C(=O)NO)cc2)C1"
  system name: "U2OS"
  cell viability, %: 97
- input smiles: "CN1CCC(COc2cnc(-c3cccc(Cn4nc(-c5cccc(C#N)c5)ccc4=O)c3)nc2)CC1"
  system name: "U2OS"
  cell viability, %: 97.4
- input smiles: "O=C(O)c1cnn(-c2nc3cc(OC(F)(F)F)c(Cl)cc3[nH]2)c1"
  system name: "U2OS"
  cell viability, %: 96
- input smiles: "C=C1CC[C@H](O)C/C1=C/C=C1\\CCC[C@]2(C)[C@@H]([C@H](C)CCCC(C)(C)O)CC[C@@H]12"
  system name: "U2OS"
  cell viability, %: 97.5

* * *

test system: HepG2; test: cell viability relative to DMSO; higher = less toxic; conditions: 72 h; 10000 nM
# y = cell viability below 90% (exclusive); n = cell viability at/above 90%

- compound: "CCN(CC)CCNC(=O)c1ccc(N)cc1 [procainamide]"
  class label: "n"
- compound: "CC(=O)OCC(=O)[C@@]12N=C(C)O[C@@H]1C[C@H]1[C@@H]3CCC4=CC(=O)C=C[C@]4(C)[C@H]3[C@@H](O)C[C@@]12C"
  class label: "n"
- compound: "NC(=O)c1[nH]cnc1O"
  class label: "n"
- compound: "CNC[C@H](O)[C@@H](O)[C@H](O)[C@H](O)CO"
  class label: "y"
- compound: "Oc1cc(O)c(Cl)cn1"
  class label: "y"
- compound: "CCCCCCCCCCCCCCCCCC(=O)OCC(O)CO (stereo not drawn)"
  class label: "n"

* * *

test system: Caco-2; test: cell viability relative to DMSO; higher = less toxic; details: 72 h; 1 nM
Here, each record is paired with measured cell viability data.
measurement type: cell viability

- compound: "Cc1ccc(/C(=C\\CN2CCCC2)c2cccc(/C=C/C(=O)O)n2)cc1"
  observed: "87.6%"
- compound: "COc1cc2ncnc(Nc3cccc(Cl)c3F)c2cc1OC(=O)N1CCN(C)C[C@H]1C"
  observed: "94.4%"
- compound: "CCOC(=O)c1ncn2c1CN(C)C(=O)c1cc(N=[N+]=[N-])ccc1-2"
  observed: "96.2%"
- compound: "CCNC(=O)CCC/C=C\\C[C@@H]1[C@@H](/C=C/[C@@H](O)CCc2ccccc2)[C@H](O)C[C@@H]1O"
  observed: "97.5%"
- compound: "O=[N+]([O-])c1ccc(O)c([N+](=O)[O-])c1"
  observed: "89.3%"
- compound: "C=CCN1CC[C@]23CCCC[C@H]2[C@H]1Cc1ccc(O)cc13"
  observed: "94.6%"
- compound: "COc1ccccc1Oc1c(NS(=O)(=O)c2ccc(C)cn2)nc(-c2ccncc2)nc1OC"
  observed: "93.2%"
- compound: "NC(=O)c1[nH]cnc1O"
  observed: "91.2%"
- compound: "NS(=O)(=O)c1cc2c(cc1Cl)N=C(CSCc1ccccc1)NS2(=O)=O [benzthiazide]"
  observed: "103%"
- compound: "CC(C)c1ccc(NC(=O)Cn2cnc3c2c(=O)n(C)c(=O)n3C)cc1"
  observed: "100%"
- compound: "CN(C)/C=N/c1c(I)cc(I)c(CCC(=O)O)c1I"
  observed: "99.8%"
- compound: "O=C(Nc1cc(Cl)cc(Cl)c1O)c1c(O)c(Cl)cc(Cl)c1Cl [oxyclozanide]"
  observed: "98.4%"
- compound: "N#CC(c1ccnc(OCc2ccc(CN3CCOCC3)cc2)n1)c1nc2ccccc2s1 (centres undefined)"
  observed: "103%"
- compound: "O=C1C2C=Nc3ccccc3C2=NN1c1ccc(Cl)cc1 (centres undefined)"
  observed: "103%"
- compound: "Cc1c(Cl)cccc1Nc1ccccc1C(=O)O"
  observed: "95.7%"
- compound: "COc1ccc(CN2CCN(C(c3ccc(F)cc3)c3ccc(F)cc3)CC2)c(OC)c1OC"
  observed: "96.9%"
- compound: "COc1cc2c(cc1OC)C(c1ccc(N)cc1)=NNC(=O)C2"
  observed: "93.1%"
- compound: "CC(=O)Nc1cccc(Nc2ncnc(N3CCC(OCc4ccc(OC(F)(F)F)cc4)CC3)n2)c1C"
  observed: "94.7%"
- compound: "CCC(CC)(CC(=O)Nc1cccc(/C=C/c2nc(C3CCC3)cs2)c1)C(=O)O"
  observed: "99.2%"

* * *

Here, each record is paired with measured cell viability data.
test system: Vero E6; experiment: cell viability relative to DMSO; higher = less toxic; details: 72 h; 100 nM
measurement type: cell viability (%)

- compound: "CCCC(C(=O)OCCN(CC)CC)(c1ccccc1)c1ccccc1 [proadifen]"
  observed: 98.4
- compound: "OC[C@H]1NC[C@@H](O)[C@@H](O)[C@@H]1O [1-deoxymannojirimycin]"
  observed: 98.2
- compound: "OC(c1ccc(-c2ccc(CN3CCN(Cc4ccncc4)CC3)cc2)c(F)c1)(C(F)(F)F)C(F)(F)F [SR-2211]"
  observed: 103
- compound: "Cc1ccc(-c2cn3c4c(sc3n2)CCCC4)cc1 [pifithrin-cyclic]"
  observed: 109
- compound: "CC(=O)OCC1=C(C(=O)O)N2C(=O)[C@@H](NC(=O)CSc3ccncc3)[C@H]2SC1 [cephapirin]"
  observed: 95.6
- compound: "Cc1cc(-c2cc(OC(=O)c3ccccc3)ccc2Cl)cc2nnc(Nc3ccc(OCCN4CCCC4)cc3)nc12"
  observed: 97.2
- compound: "O=[N+]([O-])c1ccc(O)c([N+](=O)[O-])c1 [2,4-dinitrophenol]"
  observed: 100
- compound: "O=C1CCc2cc(OCCCCc3nnnn3C3CCCCC3)ccc2N1 [cilostazol]"
  observed: 96.9
